Target: bovine serum albumin BSA (Bos taurus, UniProt P02769)
Construct: purchased Sigma Aldrich
Sequence (P02769 25-607): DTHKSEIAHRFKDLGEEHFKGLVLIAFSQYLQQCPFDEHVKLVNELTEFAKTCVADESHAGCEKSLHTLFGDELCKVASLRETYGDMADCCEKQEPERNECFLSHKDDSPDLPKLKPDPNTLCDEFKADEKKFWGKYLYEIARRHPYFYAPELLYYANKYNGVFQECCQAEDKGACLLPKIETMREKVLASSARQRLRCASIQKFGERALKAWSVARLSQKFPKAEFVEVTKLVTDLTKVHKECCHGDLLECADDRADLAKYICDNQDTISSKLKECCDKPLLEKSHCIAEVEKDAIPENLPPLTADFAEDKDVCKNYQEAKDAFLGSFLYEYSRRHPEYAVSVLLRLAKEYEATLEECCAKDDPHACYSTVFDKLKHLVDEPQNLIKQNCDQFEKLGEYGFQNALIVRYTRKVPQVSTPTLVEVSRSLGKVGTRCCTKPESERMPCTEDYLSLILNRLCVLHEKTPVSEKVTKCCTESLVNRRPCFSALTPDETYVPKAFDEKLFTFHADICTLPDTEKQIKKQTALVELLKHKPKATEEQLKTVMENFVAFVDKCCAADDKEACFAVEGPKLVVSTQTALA
Assay: NP TLC on silica gel plates impregnated with bovine serum albumin
Type: in vitro ADME
Settings: Rf value from NP plate impregnated with 2 mg/mL BSA solution; mobile phase pH 7.4
measured-metric: NP
Would you mind answering with just the numeric figure?

[in] bovine serum albumin BSA (Bos taurus, UniProt P02769) / NP / NC(=O)N1c2ccccc2CC(=O)c2ccccc21 [oxcarbamazepine] : value?
[out] 0.90

[in] bovine serum albumin BSA (Bos taurus, UniProt P02769) / NP / CCC[C@@H]1C[C@@H](C(=O)N[C@@H]([C@H]2O[C@H](SC)[C@H](O)[C@@H](O)[C@H]2O)[C@@H](C)O)N(C)C1 [lincomycin] : value?
[out] 0.91

[in] bovine serum albumin BSA (Bos taurus, UniProt P02769) / NP / CCOC(=O)C1=C(C)NC(C)=C(C(=O)OC)C1c1cccc([N+](=O)[O-])c1 (stereo not drawn) [nitrendipine] : value?
[out] 0.97

[in] bovine serum albumin BSA (Bos taurus, UniProt P02769) / NP / CCS(=O)(=O)CCn1c([N+](=O)[O-])cnc1C [tinidazole] : value?
[out] 0.88

[in] bovine serum albumin BSA (Bos taurus, UniProt P02769) / NP / CC[C@@H](C(N)=O)N1CCCC1=O [levetiracetam] : value?
[out] 0.92

[in] bovine serum albumin BSA (Bos taurus, UniProt P02769) / NP / CCC1(c2ccccc2)C(=O)NCNC1=O [primidone] : value?
[out] 0.93

[in] bovine serum albumin BSA (Bos taurus, UniProt P02769) / NP / CC[C@@H](CO)NCCN[C@@H](CC)CO [ethambutol] : value?
[out] 0.21

[in] bovine serum albumin BSA (Bos taurus, UniProt P02769) / NP / CC(C)(C)NC[C@H](O)COc1nsnc1N1CCOCC1 [timolol] : value?
[out] 0.32

[in] bovine serum albumin BSA (Bos taurus, UniProt P02769) / NP / COc1cc(Cc2cnc(N)nc2N)cc(OC)c1OC [trimethoprim] : value?
[out] 0.59

* * *

Biological target: bovine serum albumin BSA (Bos taurus)
Construct: purchased Sigma Aldrich
Experiment: NP TLC on silica gel plates impregnated with bovine serum albumin
Assay type: in vitro ADME
Settings: Rf value from NP plate impregnated with 2 mg/mL BSA solution; mobile phase pH 7.4
Label class 1 for high-side NP (at or above 0.8) and class 0 for low-side NP (below it).

[in] Evaluate CCC(C)n1ncn(-c2ccc(N3CCN(c4ccc(OCC5COC(Cn6cncn6)(c6ccc(Cl)cc6Cl)O5)cc4)CC3)cc2)c1=O (stereo not shown) : NP at minimum 0.8?
[out] class 1

[in] Evaluate CO[C@H]1/C=C/O[C@@]2(C)Oc3c(C)c(O)c4c(O)c(c(/C=N/N5CCN(C)CC5)c(O)c4c3C2=O)NC(=O)/C(C)=C\C=C\[C@H](C)[C@H](O)[C@@H](C)[C@@H](O)[C@@H](C)[C@H](OC(C)=O)[C@@H]1C : NP at minimum 0.8?
[out] class 0

[in] Evaluate CN(C)CCC=C1c2ccccc2COc2ccccc21 [doxepin] : NP at minimum 0.8?
[out] class 0

[in] Evaluate O=C(c1ccccc1)c1ccc2n1CCC2C(=O)O (stereo not shown) : NP at minimum 0.8?
[out] class 1

[in] Evaluate CCCCN1CCCCC1C(=O)Nc1c(C)cccc1C (stereo not shown) : NP at minimum 0.8?
[out] class 0

[in] Evaluate CN(C)CCC=C1c2ccccc2CCc2ccccc21 : NP at minimum 0.8?
[out] class 0

[in] Evaluate CC(N)C12CC3CC(CC(C3)C1)C2 (stereo not shown) : NP at minimum 0.8?
[out] class 1

* * *

Would you kindly list CNP for each of these compounds?
Experiment: NP TLC on unimpregnated control plate
Assay type: physicochemical
Conditions: Rf value from unimpregnated NP plate (control); mobile phase pH 7.4

[in] Could you share which CNP value was measured for CCOC(=O)C1=C(C)NC(C)=C(C(=O)OC)C1c1cccc([N+](=O)[O-])c1 (stereo not drawn) ?
[out] 0.97

[in] Could you share which CNP value was measured for CCC(C)n1ncn(-c2ccc(N3CCN(c4ccc(OCC5COC(Cn6cncn6)(c6ccc(Cl)cc6Cl)O5)cc4)CC3)cc2)c1=O (stereo not drawn) ?
[out] 0.96

[in] Could you share which CNP value was measured for CC(N)C12CC3CC(CC(C3)C1)C2 (stereo not drawn) ?
[out] 0.92

[in] Could you share which CNP value was measured for O=C(c1ccccc1)c1ccc2n1CCC2C(=O)O (stereo not drawn) ?
[out] 0.92

[in] Could you share which CNP value was measured for CCC[C@@H]1C[C@@H](C(=O)N[C@@H]([C@H]2O[C@H](SC)[C@H](O)[C@@H](O)[C@H]2O)[C@@H](C)O)N(C)C1 ?
[out] 0.91

[in] Could you share which CNP value was measured for CC1COc2c(N3CCN(C)CC3)c(F)cc3c(=O)c(C(=O)O)cn1c23 (stereo not drawn) ?
[out] 0.24

[in] Could you share which CNP value was measured for CCC1(c2ccccc2)C(=O)NCNC1=O ?
[out] 0.90

[in] Could you share which CNP value was measured for COc1cc(Cc2cnc(N)nc2N)cc(OC)c1OC ?
[out] 0.57

[in] Could you share which CNP value was measured for NC(=O)N1c2ccccc2CC(=O)c2ccccc21 [oxcarbamazepine] ?
[out] 0.91

* * *

Assay: HPLC on immobilized artificial membrane column (HPLC-IAM)
Assay type: physicochemical
Conditions: logarithm of retention factor, mobile phase pH 7.4
Would you kindly list log kIAM for each of these molecules?
Would you mind answering with just the numeric figure?

[in] Could you share which log kIAM value was measured for Nc1cc(N2CCCCC2)nc(N)[n+]1[O-] ?
[out] 0.29

[in] Could you share which log kIAM value was measured for CNCC[C@H](Oc1cccc2ccccc12)c1cccs1 ?
[out] 0.45

[in] Could you share which log kIAM value was measured for CN(C)CCC=C1c2ccccc2COc2ccccc21 [doxepin] ?
[out] 0.45

[in] Could you share which log kIAM value was measured for CO[C@H]1/C=C/O[C@@]2(C)Oc3c(C)c(O)c4c(O)c(c(/C=N/N5CCN(C)CC5)c(O)c4c3C2=O)NC(=O)/C(C)=C\C=C\[C@H](C)[C@H](O)[C@@H](C)[C@@H](O)[C@@H](C)[C@H](OC(C)=O)[C@@H]1C ?
[out] 0.92

[in] Could you share which log kIAM value was measured for CCOC(=O)C1=C(C)NC(C)=C(C(=O)OC)C1c1cccc([N+](=O)[O-])c1 (centres unmarked) ?
[out] 0.47

* * *

Assay: HPLC on immobilized artificial membrane column (HPLC-IAM)
Format: physicochemical
Conditions: retention factor, phosphate buffer pH 7.4/acetonitrile 80:20
// assign MET if kIAM falls strictly below 3, else NOT MET (ties count as NOT MET)

[in] Hello, I'm reviewing records and need to know if kIAM of CNCC[C@H](Oc1cccc2ccccc12)c1cccs1 is below 3. Could you check?
[out] MET

[in] Hello, I'm reviewing records and need to know if kIAM of CN(C)CCC=C1c2ccccc2COc2ccccc21 [doxepin] is below 3. Could you check?
[out] MET

[in] Hello, I'm reviewing records and need to know if kIAM of O=C(c1ccccc1)c1ccc2n1CCC2C(=O)O (stereo not drawn) is below 3. Could you check?
[out] MET

[in] Hello, I'm reviewing records and need to know if kIAM of CC(N)C12CC3CC(CC(C3)C1)C2 (stereo not drawn) is below 3. Could you check?
[out] MET

[in] Hello, I'm reviewing records and need to know if kIAM of NCC1(CC(=O)O)CCCCC1 is below 3. Could you check?
[out] MET

[in] Hello, I'm reviewing records and need to know if kIAM of CC(C)(C)NC[C@H](O)COc1nsnc1N1CCOCC1 is below 3. Could you check?
[out] MET

[in] Hello, I'm reviewing records and need to know if kIAM of CCCc1cc(=O)[nH]c(=S)[nH]1 is below 3. Could you check?
[out] MET

[in] Hello, I'm reviewing records and need to know if kIAM of Nc1cc(N2CCCCC2)nc(N)[n+]1[O-] is below 3. Could you check?
[out] MET

[in] Hello, I'm reviewing records and need to know if kIAM of CO[C@H]1/C=C/O[C@@]2(C)Oc3c(C)c(O)c4c(O)c(c(/C=N/N5CCN(C)CC5)c(O)c4c3C2=O)NC(=O)/C(C)=C\C=C\[C@H](C)[C@H](O)[C@@H](C)[C@@H](O)[C@@H](C)[C@H](OC(C)=O)[C@@H]1C is below 3. Could you check?
[out] NOT MET

[in] Hello, I'm reviewing records and need to know if kIAM of NS(=O)(=O)c1cc2c(cc1Cl)NCNS2(=O)=O [hydrochlorotiazide] is below 3. Could you check?
[out] MET

[in] Hello, I'm reviewing records and need to know if kIAM of CCC(C)n1ncn(-c2ccc(N3CCN(c4ccc(OCC5COC(Cn6cncn6)(c6ccc(Cl)cc6Cl)O5)cc4)CC3)cc2)c1=O (stereo not drawn) is below 3. Could you check?
[out] NOT MET

Reference source: paper PMC9913351
